# experimental.system: T1, 4H850-AA
# T1 chain: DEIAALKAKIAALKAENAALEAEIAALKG
# experimental.details: two-hybrid library CCmax;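 also: natural log of median RNA to DNA barcode read ratio; higher means stronger binding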
# experimental.parameters: mean of both orientations
measured.parameter: interaction score

DKIAALEAKIAALKAENAALEAKIAALEG [4H2389-AA]: -0.804
DEIAALEAKNAALKAEIAALKAEIAALKG [4H458-AA]: 1.08
DKIAALKAKNAALKAEIAALEAEIAALEG [4H3009-AA]: 1.63
DKIAALEAENAALKAKIAALEAEIAALKG [4H2274-AA]: -1.39
DEIAALEAKIAALEAKNAALEAKIAALKG [4H310-AA]: 1.33

[A] DEIAALKAENAALKAEIAALEAKIAALKG [4H710-AA]
[B] DENAALEAKIAALKAKIAALKAEIAALEG [4H1385-AA]
Please indicate which item has the smaller measured interaction score: A versus B Indicate which entry you chose by stating its label.
A

[1] DKNAALEAEIAALKAENAALKAKIAALEG [4H3165-AA]
[2] DENAALEAEIAALKAKNAALEAKIAALKG [4H1142-AA]
Hi team, can someone confirm which has the larger interaction score: 1 or 2 ? Thanks. Let me know the label of the one you choose.
2
(2: 0.681, 1: -0.685)
